Test System: Galectin-1 (Mus musculus, UniProt P16045)
Sequence (P16045 whole entry): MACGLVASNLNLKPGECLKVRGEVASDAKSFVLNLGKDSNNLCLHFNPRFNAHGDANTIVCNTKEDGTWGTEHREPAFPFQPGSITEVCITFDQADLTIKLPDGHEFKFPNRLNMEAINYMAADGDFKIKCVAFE
Experiment Description: Binding affinity to mouse Galectin-1 assessed as dissociation constant incubated for 30 mins in the presence of TDGA probe by fluorescence polarization assay
Result Type: Kd

# Item Smiles, Result Type, Result
measured = [
    ("OC[C@H]1O[C@H](Sc2cc(Cl)c(F)c(Cl)c2)[C@H](O)[C@@H](n2cc(-c3nccs3)nn2)[C@H]1O", "Kd", "230 nM"),
]

* * *

Test System: Galectin-1 (Mus musculus, UniProt P16045)
Experiment Description: Binding affinity to mouse full-length galectin-1 assessed as dissociation constant by SPR analysis
pKd: −log10 of the molar value.

# Item Smiles, Test System, pKd
measured = [
    ("OC[C@H]1O[C@H](Sc2cc(Cl)c(F)c(Cl)c2)[C@H](O)[C@@H](n2cc(-c3nccs3)nn2)[C@H]1O", "Galectin-1 (Mus musculus, UniProt P16045)", 6.44),
]

* * *

Experiment Description: Metabolic stability in human hepatocytes assessed as intrinsic clearance measured per 10^6 cells at 2 uM incubated for 15 to 120 mins by LC-MS/MS analysis
Assay type: ADME, cell-based, Hepatocyte
Measurement Context: time 15-120 min, read-out: CLH

# Item Smiles, hepatocyte CLint at 2 µM
rows = [
    ("OC[C@H]1O[C@H](Sc2cc(Cl)c(F)c(Cl)c2)[C@H](O)[C@@H](n2cc(-c3cscn3)nn2)[C@H]1O", "< 1 µL/min/1e6 cells"),
    ("OC[C@H]1O[C@H](Sc2ccc(Cl)c(Cl)c2)[C@H](O)[C@@H](n2cc(-c3cscn3)nn2)[C@H]1O", "1.1 µL/min/1e6 cells"),
    ("OC[C@H]1O[C@H](Sc2cc(Cl)c(F)c(Cl)c2)[C@H](O)[C@@H](n2cc(-c3nccs3)nn2)[C@H]1O", "< 1 µL/min/1e6 cells"),
    ("OC[C@H]1O[C@H](Sc2ccc(Cl)c(Cl)c2)[C@H](O)[C@@H](n2cc(-c3ccsc3)nn2)[C@H]1O", "4.9 µL/min/1e6 cells"),
]

* * *

Test System: Galectin-3 (Homo sapiens, UniProt P17931)
Sequence (P17931 whole entry): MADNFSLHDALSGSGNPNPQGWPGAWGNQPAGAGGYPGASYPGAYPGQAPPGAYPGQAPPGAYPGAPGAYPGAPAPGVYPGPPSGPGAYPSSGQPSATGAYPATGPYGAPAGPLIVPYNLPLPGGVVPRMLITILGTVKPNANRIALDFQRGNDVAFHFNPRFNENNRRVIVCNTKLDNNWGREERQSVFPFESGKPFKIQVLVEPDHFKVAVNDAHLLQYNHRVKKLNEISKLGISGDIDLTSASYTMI
Experiment Description: Binding affinity to galectin-3 (unknown origin) assessed as dissociation constant
pKd: −log10 of the molar value.
Result Type: pKd

# Item Smiles, Numeric Result
records = [
    ("OC[C@H]1O[C@@H](S[C@@H]2O[C@H](CO)[C@H](O)[C@H](n3cc(-c4ccsc4)nn3)[C@H]2O)[C@H](O)[C@@H](n2cc(-c3ccsc3)nn2)[C@H]1O", 7.19),
]

* * *

Test System: Galectin-9 (Homo sapiens)
Sequence (O00182 whole entry): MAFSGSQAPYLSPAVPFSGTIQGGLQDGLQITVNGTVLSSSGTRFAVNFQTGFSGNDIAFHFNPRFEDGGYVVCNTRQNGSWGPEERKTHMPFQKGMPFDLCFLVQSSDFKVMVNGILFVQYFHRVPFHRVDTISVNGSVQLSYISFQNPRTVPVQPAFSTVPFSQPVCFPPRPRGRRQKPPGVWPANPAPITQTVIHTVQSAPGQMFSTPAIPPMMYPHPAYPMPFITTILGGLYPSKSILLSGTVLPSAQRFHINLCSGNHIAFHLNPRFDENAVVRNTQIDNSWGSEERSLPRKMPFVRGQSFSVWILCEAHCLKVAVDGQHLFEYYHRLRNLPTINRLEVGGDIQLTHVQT
Experiment Description: Binding affinity to C-terminal human Galectin-9 assessed as dissociation constant by fluorescence polarization assay
pKd: −log10 of the molar value.

# Item Smiles, pKd
rows = [
    ("OC[C@H]1O[C@H](Sc2cc(Cl)c(F)c(Cl)c2)[C@H](O)[C@@H](n2cc(-c3nccs3)nn2)[C@H]1O", 4.64),
]

* * *

Test System: UniProt:P17931
Experiment Description: Binding affinity to human galectin-3 assessed as dissociation constant by fluorescence polarization assay
pKd: −log10 of the molar value.
pKd overview

# Item Smiles, Test System, pKd
records = [
    ("OC[C@H]1O[C@H](Sc2cc(Cl)c(F)c(Cl)c2)[C@H](O)[C@@H](n2cc(-c3cscn3)nn2)[C@H]1O", "UniProt:P17931", 5.54),
    ("OC[C@H]1O[C@H](Sc2cc(Cl)c(F)c(Cl)c2)[C@H](O)[C@@H](n2cc(-c3cncs3)nn2)[C@H]1O", "UniProt:P17931", 5.52),
    ("OC[C@H]1O[C@H](Sc2ccc(Cl)c(Cl)c2)[C@H](O)[C@@H](n2cc(-c3ncc[nH]3)nn2)[C@H]1O", "UniProt:P17931", 5.68),
    ("OC[C@H]1O[C@H](Sc2ccc(Cl)c(Cl)c2)[C@H](O)[C@@H](n2cc(-c3ccsc3)nn2)[C@H]1O", "UniProt:P17931", 5.68),
    ("OC[C@H]1O[C@H](Sc2cc(Cl)c(F)c(Cl)c2)[C@H](O)[C@@H](n2cc(-c3nccs3)nn2)[C@H]1O", "UniProt:P17931", 5.57),
    ("OC[C@H]1O[C@H](Sc2ccc(Cl)c(Cl)c2)[C@H](O)[C@@H](n2cc(-c3ncco3)nn2)[C@H]1O", "UniProt:P17931", 4.96),
    ("OC[C@H]1O[C@H](Sc2ccc(Cl)c(Cl)c2)[C@H](O)[C@@H](n2cc(-c3cscn3)nn2)[C@H]1O", "UniProt:P17931", 5.10),
    ("OC[C@H]1O[C@H](Sc2cncc(Br)c2)[C@H](O)[C@@H](n2cc(-c3ccsc3)nn2)[C@H]1O", "UniProt:P17931", 5.77),
    ("OC[C@H]1O[C@H](Sc2cc(Cl)c(F)c(Cl)c2)[C@H](O)[C@@H](n2cc(-c3cccs3)nn2)[C@H]1O", "UniProt:P17931", 5.82),
    ("OC[C@H]1O[C@H](Sc2ccc(Cl)c(Cl)c2)[C@H](O)[C@@H](n2cc(-c3nncs3)nn2)[C@H]1O", "UniProt:P17931", 5.89),
    ("OC[C@H]1O[C@H](Sc2ccc(Cl)c(Cl)c2)[C@H](O)[C@@H](n2cc(-c3ncsn3)nn2)[C@H]1O", "UniProt:P17931", 5.47),
]

Where do the numbers come from? From ChEMBL document CHEMBL5356960.
